Test system: UACC-62
ASSAY DETAILS: NCI tumour cell line growth inhibition, 48 h
Calls of active or inactive are those of the source. Rule as the data show it: active = GI50 up to about 1.1 µM and inactive = higher.
MEASURED METRIC: GI50

Solved entries (count: 3):
O=C1c2[nH]c3ccccc3c2CCN2CCCCC12 (stereo not given) | 18.8 µM (inactive)
Cc1ccc(S(=O)OC23CC4CC(CC(C4)C2)C3)cc1 (stereo not given) | > 100 µM (inactive)
CCOC(=O)/C=C\C(C#N)(C#N)/N=C/c1ccsc1 | 17 µM (inactive)

Which value of GI50 has been reported for `Cc1ccc2c(=O)c(C(=O)NNC(=S)NC3CCCCC3)c[nH]c2n1` in the records?
62.4 µM (inactive)

Which value of GI50 has been reported for `COc1cccc(-c2nc(O)c3ccccc3n2)c1` in the records?
20.1 µM (inactive)

Which value of GI50 has been reported for `Cc1ccc2nc(N/N=C/c3ccc(C)s3)cc(C)c2c1` in the records?
10.6 µM (inactive)

Which value of GI50 has been reported for `O=[N+]([O-])c1ccc(Nc2cccc3c4cc[nH]c(-c5ccccc5)c-4nc23)c([N+](=O)[O-])c1` in the records?
93.5 µM (inactive)

Which value of GI50 has been reported for `Cc1ccc(NC(=O)/C(CC(=O)c2c[n+]([O-])c3ccccc3[n+]2[O-])=N\NC(=O)C[n+]2ccccc2)cc1` in the records?
> 100 µM (inactive)

Which value of GI50 has been reported for `CCc1cccc(=O)c([O-])c1.CCc1cccc(=O)c([O-])c1.[Bi+3].[Cl-]` in the records?
9.98 µM (inactive)

Which value of GI50 has been reported for CC12CCC3C(CCC4(O)C=CCCC34C=O)C1(O)CC(O)C2c1ccc(=O)oc1 (stereo not given) in the records?
0.076 µM (active)

Which value of GI50 has been reported for `CN(C)CCNC(=O)c1ccc(Cl)c2c(Nc3ccc(S(=O)(=O)N=C(N)N)cc3)c3ccccc3nc12` in the records?
5.42 µM (inactive)

Which value of GI50 has been reported for `Cc1cc(S(=O)(=O)N=C2N(Cc3ccccc3)CCN2Cc2ccccc2)c(S)cc1Cl` in the records?
> 100 µM (inactive)

Which value of GI50 has been reported for `O=C(N/C(=C\c1ccccc1)c1nc2ccccc2c(=O)o1)c1ccccc1` in the records?
30.1 µM (inactive)

Which value of GI50 has been reported for `CN(C)NC(=S)Nc1ccccc1Br` in the records?
> 100 µM (inactive)

Which value of GI50 has been reported for C[C@]12CC[C@H](O)CC1=CC[C@@H]1C2CC[C@]2(C)C(=O)NC(=O)CC12 (stereo not given in full) in the records?
> 100 µM (inactive)

Which value of GI50 has been reported for `COc1ccc2[nH]c3c([N+](=O)[O-])ccc(NCCCN(C)C)c3/c(=N/CCCN(C)C)c2c1` in the records?
> 10 µM (inactive)

Which value of GI50 has been reported for `O=CC1=C(C(=O)OC(c2ccccc2)c2ccccc2)N2C(=O)[C@@H](NC(=O)Cc3cccs3)[C@H]2SC1` in the records?
> 100 µM (inactive)

Which value of GI50 has been reported for `COC(=N)c1ncn(Cc2ccccc2)c1N` in the records?
> 100 µM (inactive)

Which value of GI50 has been reported for `O=C1c2cccc3c2C(=O)c2c(cccc21)OCCOCCOCCOCCO3` in the records?
> 100 µM (inactive)

Which value of GI50 has been reported for CC(=O)N1CCN(c2ccc(OCC3COC(Cn4ccnc4)(c4ccc(Cl)cc4Cl)O3)cc2)CC1 (stereo not given) in the records?
15.4 µM (inactive)

---

Tested on: NCI-H460
ASSAY DETAILS: NCI tumour cell line growth inhibition, 48 h
The source made the active and inactive calls. No stated cut-off is given here; in the data, active = GI50 up to about 1.1 µM and inactive = higher.
Choose one outcome from this list and give only that: active, inactive

COC(=O)C1CC2(c3ccccc3)C(=O)c3ccccc3N2O1 (stereo not drawn) | inactive

Which outcome did this test record for the molecule `CC(C)(C)c1ccc(O)c(C[N+](C)(C)C)c1` ?
inactive

Which outcome did this test record for the molecule O=C1CSC(c2c[nH]c3ccccc23)N1c1ccccc1[N+](=O)[O-] (stereo not drawn) ?
inactive

Which outcome did this test record for the molecule CC1(CO)C(O)CCC2(C)C1CCC1CC3CC12CCC3(O)CO (stereo not drawn) ?
active

Which outcome did this test record for the molecule `N=c1oc2cc(O)ccc2cc1C(=O)Nc1ccccn1` ?
inactive

Which outcome did this test record for the molecule N#Cc1c2c(c(N)oc1=O)C(c1ccccc1)CC(=O)N2 (stereo not drawn) ?
inactive

Which outcome did this test record for the molecule `COC(=O)CCCC(=O)NC1=C(NCc2ccccc2)C(=O)c2ccccc2C1=O` ?
inactive

Which outcome did this test record for the molecule `COC(=O)C1=C(C(=O)OC)SC(=C(/N=N/c2ccccc2)c2ccccc2)S1` ?
inactive

---

System: CCRF-CEM
ASSAY DETAILS: NCI tumour cell line growth inhibition, 48 h
Structures can show the parent of a compound that is named as a salt. Activity calls are given as the source filed them. Cut-off read from the data, not from the text of the source: active = GI50 up to about 1.1 µM and inactive = higher.
Choose one outcome from this list and give only that: active, inactive

Previously resolved entries follow.
O=C(O)CCC(NC(=O)c1ccc(Nc2cnc3cc(C(F)(F)F)ccc3n2)cc1)C(=O)O (centres undefined) | inactive
C=CCOc1ccc(C2c3c(n[nH]c3O)CC(O)(OCC)C2C(=O)OCC)cc1OC (centres undefined) | inactive
[O-][Cl+3]([O-])([O-])O.c1ccc(/N=c2\nc(N3CCOCC3)ss2)cc1 | active

Which outcome did this test record for the compound `CN1C(=N\S(=O)(=O)c2ccc(Cl)cc2)/C(=N/N=P(c2ccccc2)(c2ccccc2)c2ccccc2)c2ccccc21` ?
inactive

Which outcome did this test record for the compound `CSC(SC)=C1C(=O)NN=C1C` ?
inactive

Which outcome did this test record for the compound Cc1cc(Cl)ccc1NC(=O)CCCC(=O)C(C(=O)c1ccccc1)c1ccccc1 (centres undefined) ?
inactive

Which outcome did this test record for the compound O=C1c2c(O)cccc2-c2nn(CCNCCO)c3ccc(NCCNCCO)c1c23 [LOSOXANTRONE HYDROCHLORIDE] ?
active

Which outcome did this test record for the compound CC(C)N(C(C)C)S(=O)(=O)CC12CCC(C/C1=N\O)C2 (centres undefined) ?
inactive

Which outcome did this test record for the compound `COc1ccccc1Cn1c2c(c3cc(O)ccc31)C(=O)c1ccccc1C2=O` ?
inactive

---

# GI50 values compiled below
System: RXF 631
ASSAY DETAILS: NCI tumour cell line growth inhibition, 48 h
Calls of active or inactive are those of the source. Cut-off read from the data, not from the text of the source: active = GI50 up to about 1.1 µM and inactive = higher.

Solved entries (count: 6):
COC(=O)[C@]1(C)CCCC2(C)C1CC[C@H]1C=C(C)[C@H]3CCC12C3 (some centres not stated) | > 100 µM (inactive)
CCOC(=O)C1=C(C)NC(=S)NC1c1ccccc1 (configuration not stated) | > 100 µM (inactive)
Cn1nc(-c2ccccc2)c(C(=O)/C=C/c2ccc(F)cc2)c(N2CCOCC2)c1=O | 27.7 µM (inactive)
Cc1cccc2c1c1ccc3c(c1n2C)C(=O)C=CC3=O | 6.79 µM (inactive)
Cc1ccc(NC(=O)/C(CC(=O)c2c[n+]([O-])c3ccccc3[n+]2[O-])=N\NC(=O)C[n+]2ccccc2)cc1 | > 100 µM (inactive)
O=C1c2cccc3cccc(c23)C(=O)N1CCN(CCO)CCO | 35.8 µM (inactive)

Kindly consider the entry below.
Which value of GI50 has been reported for `[O-][Cl+3]([O-])([O-])O.c1ccc(/N=c2\nc(N3CCOCC3)ss2)cc1` in the records?
17.4 µM (inactive)

---

Tested on: MDA-MB-231
ASSAY DETAILS: NCI tumour cell line growth inhibition, 48 h
Active and inactive are the calls of the source. No stated cut-off is given here; in the data, active = GI50 up to about 1.1 µM and inactive = higher.
# GI50 values compiled below

Solved entries (count: 2):
O=C1N(CN2CCOCC2)CN(CN2CCOCC2)C(=O)N1Cc1ccccc1 | 26.2 µM (inactive)
CC(NP(=O)(c1ccccc1)c1ccccc1)c1ccccc1 (stereo not given) | > 100 µM (inactive)

Find GI50 (MDA-MB-231) for the entry N#Cc1c2c(c(N)oc1=O)C(c1ccccc1)CC(=O)N2 (stereo not given)
> 100 µM (inactive)

Find GI50 (MDA-MB-231) for the entry NC(Cc1ccc(B(O)O)cc1)C(=O)NC(CO)CO (stereo not given)
> 100 µM (inactive)

Find GI50 (MDA-MB-231) for the entry C=CCOc1ccc(C2c3c(n[nH]c3O)CC(O)(OCC)C2C(=O)OCC)cc1OC (stereo not given)
> 100 µM (inactive)

Find GI50 (MDA-MB-231) for the entry `O=C(N/C(=C\c1ccccc1)c1nc2ccccc2c(=O)o1)c1ccccc1`
> 38.3 µM (inactive)

Find GI50 (MDA-MB-231) for the entry `CC(C)(C)c1ccc(O)c(C[N+](C)(C)C)c1`
> 100 µM (inactive)

Find GI50 (MDA-MB-231) for the entry OC1C[C@H](c2ccccc2)C2(C(O)c3ccccc3C2O)[C@@H](c2ccccc2)C1 (stereo not given in full)
> 100 µM (inactive)

Find GI50 (MDA-MB-231) for the entry `CS(=O)(=O)OCCN(CCOS(C)(=O)=O)c1ccc(/C=N/c2ccc(-c3csc(COc4ccccc4)n3)cc2)cc1`
17 µM (inactive)

Find GI50 (MDA-MB-231) for the entry Oc1ccc(CCc2cc(O)cc(O)c2)cc1 [DIHYDRORESVERATROL]
23.7 µM (inactive)

The measured values listed here are drawn from ChEMBL document CHEMBL1201862.
